TARGET OR TEST SYSTEM: hPPARγ (Homo sapiens, UniProt P37231)
Construct: expressed in transfected cells
Sequence (P37231 238-503 limits assumed): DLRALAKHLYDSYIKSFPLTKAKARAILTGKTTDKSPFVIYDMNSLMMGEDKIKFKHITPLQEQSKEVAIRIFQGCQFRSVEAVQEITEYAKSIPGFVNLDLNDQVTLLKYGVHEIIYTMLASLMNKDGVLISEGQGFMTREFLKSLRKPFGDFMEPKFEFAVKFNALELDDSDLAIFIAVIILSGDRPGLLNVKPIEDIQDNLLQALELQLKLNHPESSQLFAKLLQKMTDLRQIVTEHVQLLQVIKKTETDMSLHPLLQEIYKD
ASSAY METHOD TEXT: Transcriptional activity of PPARγ (Table 9; chimeric transcription factor assay)
Type: cell-based
MEASURE: EC50 (µM)
Express it in µM; write the number only.

Worked cases, answers included:
COMPOUND	EC50, µM
C[C@@H]1CN(c2nc3ccc(Cl)cc3s2)C[C@H](C)N1CCOc1ccc(Cl)c(CC(=O)O)c1	0.76
CNc1cccc(-c2cnc(N3CCN(CCOc4cc(CC(=O)O)ccc4Cl)[C@@H](C)C3)s2)c1	1.9
C[C@H]1CN(c2nc3ccc(Cl)cc3s2)CCN1CCOc1cc(Cl)cc(CC(=O)O)c1	0.58
Cc1cc(CC(=O)O)cc(CN2CCN(c3nc4ccc(C(F)(F)F)cc4s3)[C@@H](CC(C)C)C2)c1	0.2
C[C@@H]1CN(c2ccc(C(F)(F)F)cn2)C[C@H](C)N1CCOc1cc(CC(=O)O)ccc1Cl	3.3

Recorded EC50 (compound O=C(O)Cc1cccc(OCCN(C2CCCCC2)C2CCN(c3nc4ccc(Cl)cc4s3)C2)c1 (stereo not drawn) ): 4.2

Recorded EC50 (compound COc1ccc(CC(=O)O)cc1OCC1CCN(c2nc3ccc(Cl)cc3s2)CC1 ): 0.8

Recorded EC50 (compound CCCCN(Cc1cccc(CC(=O)O)c1)C1CCN(c2nc3ccc(Cl)cc3s2)C1 (stereo not drawn) ): 2.2

###

TARGET OR TEST SYSTEM: human PPARα (hPPARα) (Homo sapiens, UniProt Q07869)
Construct: δ: aa 139-C-end; α: aa 167-C-end; expressed in transfected cells; host or cells: CHO cells (transient transfection, FuGene)
Sequence (Q07869 167-468 limits assumed): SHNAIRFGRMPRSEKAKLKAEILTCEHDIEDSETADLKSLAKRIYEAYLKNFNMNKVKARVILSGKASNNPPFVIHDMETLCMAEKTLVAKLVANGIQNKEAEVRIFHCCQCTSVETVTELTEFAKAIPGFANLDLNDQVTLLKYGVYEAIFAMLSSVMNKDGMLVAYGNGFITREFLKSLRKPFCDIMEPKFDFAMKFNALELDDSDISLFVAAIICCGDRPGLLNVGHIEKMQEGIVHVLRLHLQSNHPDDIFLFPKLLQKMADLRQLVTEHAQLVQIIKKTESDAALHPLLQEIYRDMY
ASSAY METHOD TEXT: Test for transcriptional activity of PPARα (GAL4 chimeric transcription factor reporter assay in CHO cells)
Format: cell-based
CONDITION INFO: CHO cells transfected with GAL4-hPPARα LBD and pG5luc reporter; 24 hours; luciferase activity
Each record here notes measured EC50.

Worked cases, answers included:
MOLECULE	EC50
C[C@@H]1CN(c2nc3ccc(Cl)cc3s2)C[C@H](C)N1CCOc1ccc(Cl)c(CC(=O)O)c1 [Example 699]	1 µM
CCCCN(Cc1cccc(CC(=O)O)c1)C1CCN(c2nc3ccc(Cl)cc3s2)C1 (stereo not drawn) [Example 612]	0.57 µM
CCCC[C@@H]1CN(Cc2cc(C)cc(OCC(=O)O)c2)CCN1c1nc2ccc(OC(F)(F)F)cc2s1 [Example 854]	> 10 µM
COc1ccc(CC(=O)O)cc1OCC1CCN(c2nc3ccc(Cl)cc3s2)CC1 [Example 519]	0.54 µM
C[C@@H]1CN(c2ccc(C(F)(F)F)cn2)C[C@H](C)N1CCOc1cc(CC(=O)O)ccc1Cl [Example 707]	2.5 µM

Recorded EC50 (molecule Cc1cc(CC(=O)O)cc(CN2CCN(c3nc4ccc(C(F)(F)F)cc4s3)[C@@H](CC(C)C)C2)c1 [Example 474] ): 0.35 µM

Recorded EC50 (molecule C[C@@H]1CN(C2(CCOc3cc(Cl)cc(CC(=O)O)c3)CCN(c3nc4ccc(Cl)cc4s3)CC2)C[C@H](C)O1 [Example 652] ): > 10 µM

Recorded EC50 (molecule CNc1cccc(-c2cnc(N3CCN(CCOc4cc(CC(=O)O)ccc4Cl)[C@@H](C)C3)s2)c1 [Example 562] ): > 10 µM
